Values compiled from patent US11753408B2.

# assay_summary: PAMPA permeability
# Assay type: in vitro ADME
measurement_type: PAMPA Permeability (×10⁻⁶ cm/s)
One number for each entry, in ×10⁻⁶ cm/s.

Give one value of PAMPA Permeability per listed compound.
1. CN(C)CCN1CCN(C(=O)c2ccc(-n3c(=O)ccc4cnc5ccc(-c6ccc(Cl)cc6)cc5c43)cc2)CC1 [Compound 95]
2. CN1CC2CN(C(=O)c3ccc(-n4c(=O)ccc5cnc6ccc(-c7ccc(Cl)cc7)cc6c54)cc3)CC2C1 (stereo not shown) [Compound 141]
3. O=C(c1ccc(-n2c(=O)ccc3cnc4ccc(-c5ccc(CCN6CCCC6)cc5)cc4c32)cc1)N1CCOCC1 [Compound 217]
4. O=C(c1ccc(-n2c(=O)ccc3cnc4ccc(-c5ccc(Cl)cc5)cc4c32)cc1)N1CCN(CCO)CC1 [Compound 109]

1: 674; 2: 1500; 3: 130; 4: 227
